Data credit: PubChem BioAssay (NCATS)

molecular target: Cytochrome P450 1A2 (Homo sapiens) (UniProt P05177); experiment: p450-cyp1a2 (AID 410); settings: recombinant CYP1A2, luciferin-ME demethylation, luminescence; series mostly up to 57 µM
Sequence (P05177 whole entry, looked up): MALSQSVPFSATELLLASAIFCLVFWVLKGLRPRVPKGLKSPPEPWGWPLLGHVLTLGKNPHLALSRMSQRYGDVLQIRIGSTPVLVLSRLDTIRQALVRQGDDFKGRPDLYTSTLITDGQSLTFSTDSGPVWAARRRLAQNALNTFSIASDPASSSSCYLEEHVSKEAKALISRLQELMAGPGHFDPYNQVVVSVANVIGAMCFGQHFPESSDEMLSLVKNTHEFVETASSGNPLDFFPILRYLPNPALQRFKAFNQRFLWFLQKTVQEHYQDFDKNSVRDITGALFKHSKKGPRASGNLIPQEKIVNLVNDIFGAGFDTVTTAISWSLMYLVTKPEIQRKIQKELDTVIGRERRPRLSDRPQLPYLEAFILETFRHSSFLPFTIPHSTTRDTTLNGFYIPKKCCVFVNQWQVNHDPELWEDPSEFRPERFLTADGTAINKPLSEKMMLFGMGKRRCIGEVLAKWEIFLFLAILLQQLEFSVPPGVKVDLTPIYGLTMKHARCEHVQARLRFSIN
Inconclusive results are not listed. Active and inactive are the calls of the source. Calls come from the whole dose curve.
Outcomes: True (active), False (inactive)

smiles_entry=CN(C)c1ncc2nc(-c3cccc(C#N)c3)c(=O)n(C[C@H]3CCCO3)c2n1 assigned_class=True
smiles_entry=COc1ccccc1CN1CCCC2(CCN(C(=O)c3ccco3)CC2)C1 assigned_class=False
smiles_entry=Cc1cccc(CNc2nc(-c3cccc(NS(C)(=O)=O)c3)nc3ccccc23)c1 assigned_class=True
smiles_entry=O=C(c1csnn1)N1CCC2(CC1)CN(c1cccc(-c3ccccc3)c1)C2 assigned_class=True
smiles_entry=N#Cc1cccc(NC(=O)N2CCCC3(CCN(C(=O)c4ccco4)CC3)C2)c1 assigned_class=True
smiles_entry=Cc1cnc(CNc2ccnc(-c3ccc(N(C)C)cc3)n2)cn1 assigned_class=True
smiles_entry=N#Cc1ccc(CN2CCC3(CC2)CCN(C(=O)c2cc(C(F)(F)F)cc(C(F)(F)F)c2)CC3)cc1 assigned_class=False
smiles_entry=COc1cccc(-c2nc(NCCNC(C)=O)c3ccccc3n2)c1 assigned_class=True
smiles_entry=Cn1cc(-c2nc3cncnc3n(CCN)c2=O)c2ccccc21 assigned_class=True
smiles_entry=COc1ncc2nc(-c3cccs3)c(=O)n(C)c2n1 assigned_class=True
smiles_entry=CC(C)CN1CCCC2(CCN(C(=O)c3cccc(F)c3)CC2)C1 assigned_class=False
smiles_entry=CC(C)NC(=O)N1CC[C@@]2(CCCN(S(=O)(=O)c3ccccc3)C2)C1 assigned_class=False
smiles_entry=COc1cccc(-c2nccc(NCc3cnc(C)cn3)n2)c1 assigned_class=True
smiles_entry=Clc1ccccc1-c1nc(NC2CCNCC2)c2ccccc2n1 assigned_class=True
smiles_entry=COc1ccccc1CNc1ncnc2ccc(-c3ccccc3OC)cc12 assigned_class=True
smiles_entry=CN(C)C(=O)c1ccc(-c2cncnc2-n2ccnc2)cc1 assigned_class=True
smiles_entry=O=C(c1ccco1)N1CCC[C@@]2(CCN(c3cccc(-c4ccccc4)c3)C2)C1 assigned_class=True
smiles_entry=COc1ccc2[nH]cc(CCNc3ncnc4ccc(-c5ccc6c(c5)OCO6)cc34)c2c1 assigned_class=True
smiles_entry=COc1ccc(NC(=O)N2CCC3(CC2)CCN(C(=O)c2ccco2)CC3)cc1 assigned_class=True
smiles_entry=Cn1cccc1C(=O)N1CCC2(CC1)CN(c1ccccn1)C2 assigned_class=False
smiles_entry=COc1ccc2[nH]cc(CCNc3ccnc(-c4ccccc4C(F)(F)F)n3)c2c1 assigned_class=True
smiles_entry=O=C(c1ccncc1)N1CCC2(CCN(Cc3ccncc3)CC2)CC1 assigned_class=False

###

assay: qHTS Assay for Lipid Storage Modulators (AID 1519); details: Drosophila S3 cells, BODIPY lipid droplet/cell ratio, laser cytometry; at 57.5 µM (top of the series); cells loaded with oleic acid; note: % is set by controls: 0 for no effect and ±100 for the full control effect
Results filed as inconclusive are left out.
OBSERVATION_TYPE: activity change, negative = inhibition (%)

compound=COc1ccc(NC(=O)N2CC[C@@]3(CCCN(C(=O)c4cc(C(F)(F)F)cc(C(F)(F)F)c4)C3)C2)cc1 result=6.21
compound="Nc1c2ccccc2nc2ccccc12 (tested in a mixture with another compound)" result=-15.1
compound=COCC(=O)N1CCC2(CCN(Cc3ccccc3OC)CC2)CC1 result=-2.32
compound=COC(=O)N1CCC2(CCN(Cc3ccccc3OC)CC2)CC1 result=2.37
compound=O=c1c(O)c(-c2ccc(O)cc2)oc2ccccc12 result=8.84
compound=O=C(c1cc(C(F)(F)F)cc(C(F)(F)F)c1)N1CCC2(CC1)CCN(c1ccccc1)CC2 result=-9.68
compound=O=C(c1ccco1)N1CCC[C@@]2(CCN(C(c3ccccc3)c3ccccc3)C2)C1 result=-15.2
compound=COCC(=O)N1CCC[C@@]2(CCN(c3ccccc3)C2)C1 result=-2.7
compound=COc1ccc(-n2c(=O)cnc3cnc(Nc4ccccc4)nc32)cc1 result=7.14
compound=COCC(=O)N1CCC2(CCCN(c3ccc(-c4ccccc4)cc3)C2)CC1 result=-5.34

###

target: Dual specificity protein kinase CLK4 (Homo sapiens); assay: qHTS Assay for Inhibitors of CDC-like Kinase 4 (Kinase-Glo Assay) (AID 1770); settings: recombinant Clk4, Kinase-Glo ATP depletion luminescence; series mostly up to 66.7 µM; note: nearly all actives have a fitted effect of over 65% in size; note: potency is the fitted concentration of half-maximal effect
Results filed as inconclusive are left out. Activity calls are given as the source filed them. Calls follow the shape of the dose curve; as a rule, active = well fitted inhibition curve with a large enough effect; inconclusive = small, poorly fitted or top-dose-only effect; inactive = flat fitted curve, though single readings scatter.
OBSERVATION_TYPE: Potency

smiles_entry=COCCn1c(=O)c(-c2ccccc2)nc2cnc(N(C)C)nc21 measured_target="Dual specificity protein kinase CLK4 (Homo sapiens)" observation_type=Potency result=inactive
smiles_entry=COCCn1c(=O)c(-c2ccc(Cl)cc2)nc2cnc(N(C)C)nc21 measured_target="Dual specificity protein kinase CLK4 (Homo sapiens)" observation_type=Potency result=inactive
smiles_entry=COc1ccc(CNc2nc(-c3c(C)noc3C)nc3ccccc23)c(OC)c1 measured_target="Dual specificity protein kinase CLK4 (Homo sapiens)" observation_type=Potency result=inactive
smiles_entry=COCCn1c(=O)c(CCc2ccccc2)nc2cnc(Nc3ccccc3)nc21 measured_target="Dual specificity protein kinase CLK4 (Homo sapiens)" observation_type=Potency result=inactive
smiles_entry=Cc1nc2cnc(Nc3ccccc3)nc2n(CCc2ccccc2)c1=O measured_target="Dual specificity protein kinase CLK4 (Homo sapiens)" observation_type=Potency result=inactive
smiles_entry=COc1ccc(-c2nc3cnc(N(C)C)nc3n(CCC#N)c2=O)cc1 measured_target="Dual specificity protein kinase CLK4 (Homo sapiens)" observation_type=Potency result=inactive
smiles_entry=Clc1ccccc1-c1nc(NCc2cccs2)c2ccccc2n1 measured_target="Dual specificity protein kinase CLK4 (Homo sapiens)" observation_type=Potency result="7.94 µM (active)"
smiles_entry=COc1ccccc1-c1cc(N(C)Cc2ccco2)ncn1 measured_target="Dual specificity protein kinase CLK4 (Homo sapiens)" observation_type=Potency result="28.2 µM (active)"
smiles_entry=COc1ccccc1CNc1cc(-c2ccccc2C(F)(F)F)ncn1 measured_target="Dual specificity protein kinase CLK4 (Homo sapiens)" observation_type=Potency result=inactive
smiles_entry=COc1cccc(-c2nc(NC3CCNCC3)c3ccccc3n2)c1 measured_target="Dual specificity protein kinase CLK4 (Homo sapiens)" observation_type=Potency result="11.2 µM (active)"
smiles_entry=Cc1cnc(CNc2ccnc(-c3ccccc3C)n2)cn1 measured_target="Dual specificity protein kinase CLK4 (Homo sapiens)" observation_type=Potency result=inactive

###

assay: AP1 Signaling Pathway (AID 357); conditions: ME-180 (cervical carcinoma) AP-1-bla reporter, EGF-induced, beta-lactamase ratio, 5 h; at 7.69 µM (top of the series) unless noted;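 note: ME-180 reporter cells stimulated with EGF at its EC50 level; % is set by controls: 0 for no effect and ±100 for the full control effect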
Results filed as inconclusive are left out.
OBSERVATION_TYPE: activity change, negative = inhibition (%)

smiles_entry=c1ncc(-c2ccc3c(c2)OCO3)c(NCCc2cnc[nH]2)n1 reading_unit=% result=-17.2
smiles_entry=COc1cccc(Cn2c(=O)c(-c3cccc(C#N)c3)nc3cnc(N4CCOCC4)nc32)c1 reading_unit=% result=0.3
smiles_entry=CS(=O)(=O)N1CCC[C@@]2(CCN(C(c3ccccc3)c3ccccc3)C2)C1 reading_unit=% result=5.41
smiles_entry=COc1ncc2nc(-c3cn(C)c4ccccc34)c(=O)n(CCc3ccccc3)c2n1 reading_unit=% result=24.3
smiles_entry=COc1ccc(-c2nc3cnc(Oc4ccccc4)nc3n(Cc3cccs3)c2=O)cc1 reading_unit=% result=0.136
smiles_entry=CN(C)c1ccc(-c2ccc3ncnc(N(C)Cc4ccco4)c3c2)cc1 reading_unit=% result=-28.7
smiles_entry=O=S(=O)(c1ccccc1)N1CCC2(CC1)CN(c1ccccn1)C2 reading_unit=% result=16
smiles_entry=O=c1c(-c2ccc(F)cc2)nc2cncnc2n1C1CC1 reading_unit=% result=-6.77
smiles_entry=O=C(Nc1cccc(F)c1)N1CC2(CCN(C(=O)c3cccc(F)c3)CC2)C1 reading_unit=% result=-21.6
smiles_entry=COc1ccccc1-c1cncnc1Nc1ccccc1 reading_unit=% result=-6.14
smiles_entry=O=C(c1ccco1)N1CCC[C@@]2(CCN(c3ncccn3)C2)C1 reading_unit=% result=-6.68

###

test: NFAT Signaling Pathway (AID 444); conditions: Jurkat NFAT-bla M1, carbachol, beta-lactamase ratio, 5 h; at 7.69 µM (top of the series) unless noted;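 note: carbachol stimulus at about its EC50 of 1 µM final; % is set by controls: 0 for no effect and ±100 for the full control effect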
Inconclusive results are not listed. Active and inactive are the calls of the source. Calls come from the whole dose curve; as a rule, active = well fitted curve in either direction with a large enough effect (not every such curve was filed as active); inconclusive = small, poorly fitted or top-dose-only effect, or another doubt; inactive = flat fitted curve, though single readings scatter.
OBSERVATION_TYPE: activity change, negative = inhibition

smiles_entry=N#CCCn1c(=O)c(-c2ccccc2)nc2cnc(Nc3ccccc3)nc21 observation_type="activity change, negative = inhibition" result="-16.9% (inactive)"
smiles_entry=COc1ccccc1-c1ccc2ncnc(NCc3ccccc3)c2c1 observation_type="activity change, negative = inhibition" result="0.253% (inactive)"
smiles_entry=O=c1c(-c2ccc(Cl)cc2)nc2cnc(Nc3ccccc3)nc2n1C[C@H]1CCCO1 observation_type="activity change, negative = inhibition" result="-7.53% (inactive)"
smiles_entry=O=c1c(-c2ccc(F)cc2)nc2cncnc2n1Cc1ccccc1 observation_type="activity change, negative = inhibition" result="-16.1% (inactive)"
smiles_entry=O=C(c1csnn1)N1CCC2(CC1)CCN(c1cccc(-c3ccccc3)c1)CC2 observation_type="activity change, negative = inhibition" result="22.2% (inactive)"
smiles_entry=COC(=O)N1CCC2(CCCN(C(c3ccccc3)c3ccccc3)C2)CC1 observation_type="activity change, negative = inhibition" result="-16.3% (inactive)"
smiles_entry=COc1cccc(Nc2ncc3nc(-c4cc(F)cc(F)c4)c(=O)n(C4CC4)c3n2)c1 observation_type="activity change, negative = inhibition" result="-29.9% (inactive)"
smiles_entry=COc1cccc(Nc2ncc3nc(-c4cn(C)c5ccccc45)c(=O)n(C[C@H]4CCCO4)c3n2)c1 observation_type="activity change, negative = inhibition" result="-1.76% (inactive)"
smiles_entry=COc1ncc2nc(-c3ccccc3)c(=O)n(CCC#N)c2n1 observation_type="activity change, negative = inhibition" result="-5.79% (inactive)"
smiles_entry=Cc1cccc(CNc2ncncc2-c2cccnc2)c1 observation_type="activity change, negative = inhibition" result="12% (inactive)"
smiles_entry=Cc1cccc(CNc2ncnc3ccc(-c4cccc(NS(C)(=O)=O)c4)cc23)c1 observation_type="activity change, negative = inhibition" result="12.3% (inactive)"
smiles_entry=O=C(Nc1ccccc1)N1CCC2(CC1)CCN(C(=O)c1cccc(F)c1)CC2 observation_type="activity change, negative = inhibition" result="14.6% (inactive)"
smiles_entry=c1ccc(-c2ccc(N3CC[C@@]4(CCCNC4)C3)cc2)cc1 observation_type="activity change, negative = inhibition" result="10.5% (inactive)"
smiles_entry=COc1ccc2[nH]cc(CCNc3ncnc4ccc(-c5ccc(C(=O)N(C)C)cc5)cc34)c2c1 observation_type="activity change, negative = inhibition" result="5.5% (inactive)"
smiles_entry=COc1ccc(-n2c(=O)c(-c3ccccc3)nc3cncnc32)cc1 observation_type="activity change, negative = inhibition" result="8.64% (inactive)"
smiles_entry=CC1(C)O[C@@H]2C[C@H]3[C@H]4C[C@H](F)C5=CC(=O)C=C[C@@]5(C)[C@@H]4[C@H](O)C[C@]3(C)[C@]2(C(=O)CO)O1 observation_type="activity change, negative = inhibition" result="-5.12% [at 17.2 µM] (inactive)"
smiles_entry=Cn1cc(-c2nc3cnc(Oc4cccc(Cl)c4)nc3n(C3CC3)c2=O)c2ccccc21 observation_type="activity change, negative = inhibition" result="6.59% (inactive)"
smiles_entry=CC(C)CN1CC[C@@]2(CCCN(C(=O)c3ccco3)C2)C1 observation_type="activity change, negative = inhibition" result="7.22% (inactive)"
smiles_entry=Cc1cnc(CNc2cc(-c3ccc4c(c3)OCO4)ncn2)cn1 observation_type="activity change, negative = inhibition" result="7.15% (inactive)"
smiles_entry=O=c1c(-c2cc(F)cc(F)c2)nc2cncnc2n1C1CC1 observation_type="activity change, negative = inhibition" result="2.52% (inactive)"
smiles_entry=COCCn1c(=O)c(CCc2ccccc2)nc2cnc(Oc3ccc(OC)cc3)nc21 observation_type="activity change, negative = inhibition" result="2.36% (inactive)"
